- TGT: Tyrosine-protein kinase ABL1 (Homo sapiens)
- RUN_CONDITIONS: Compound concentration 20.0 uM, Protein concentration 2.0 uM, Result type QC Liability
- Description: Thermal Shift Assay. Domain: start/stop: S229-K512
Use 0.5 °C as the dividing line for ΔTm, with the line itself on the rule met side and lower values as rule not met.

# COMPOUND, TGT, ANSWER_LABEL
records = [
    ("COc1cc2c(cc1CC=C(C)C)C(=O)C[C@@H](c1ccc(O)cc1)O2", "Tyrosine-protein kinase ABL1 (Homo sapiens)", "rule met"),
]

Can CCC(=O)N[C@H]1CC[C@@H](C(=O)N(C)c2ccc(-c3nc4ccccc4o3)cc2)C1 be said to have ΔTm at or above 0.5 °C?
rule met

Can Cn1cnc(Cn2ccc3ccc(CNCc4[nH]c5ccccc5c4[C@H]4NC(=O)c5ccc(O)cc54)cc32)c1 be said to have ΔTm at or above 0.5 °C?
rule not met

###

- TGT: Casein kinase I isoform delta (Homo sapiens)
- RUN_CONDITIONS: Compound concentration 20.0 uM, Protein concentration 2.0 uM, Result type QC Liability
- Description: Thermal Shift Assay. Domain: start/stop: M1-K294
QUANTITY_MEASURED: ΔTm
The number alone won't do; follow it with the unit.

# COMPOUND, TGT, ΔTm
rows = [
    ("CCCN1C(=O)c2ccc(Cl)cc2Nc2ncccc21", "Casein kinase I isoform delta (Homo sapiens)", "0.61 °C"),
    ("COc1cc2nc(C)nc(N[C@H](C)c3cc(N)cc(C(F)(F)F)c3)c2cc1O[C@H]1CCOC1", "Casein kinase I isoform delta (Homo sapiens)", "0.27 °C"),
    ("COc1ccc(Br)cc1S(=O)(=O)NC(=O)/C=C/c1cc(Cl)ccc1Cc1ccc2ccccc2c1", "Casein kinase I isoform delta (Homo sapiens)", "-6.17 °C"),
]

So what's the measured ΔTm for this one? COc1cc(F)ccc1-c1ncnc(Nc2cccc(C[S@](C)(=N)=O)c2)n1
0.27 °C

So what's the measured ΔTm for this one? CC(C)(C)c1cc(NC(=O)c2csc(Nc3ccccn3)n2)no1
0.84 °C

So what's the measured ΔTm for this one? CNC(=O)COc1cc2cc(Nc3nc(N4C[C@H](C)C[C@H](C)C4)ncc3Cl)ccc2n(C)c1=O
0.11 °C

So what's the measured ΔTm for this one? COc1cc(C(=O)O)ncc1C#Cc1ccccc1NS(=O)(=O)c1cccc2c(N(C)C)ccnc12
0.08 °C

So what's the measured ΔTm for this one? Cc1nc2ccccc2c(-c2ccc3c4c(ccnc24)CCO3)c1[C@H](OC(C)(C)C)C(=O)O
0.28 °C

So what's the measured ΔTm for this one? C[S+]([O-])c1ccc(-c2nc(-c3cccc(I)c3)c(-c3ccncc3)[nH]2)cc1 (stereo not given)
2.61 °C

So what's the measured ΔTm for this one? CN(C)c1ncc2cc(-c3ccc(-c4ncccc4F)cc3Cl)c(=O)n(C[C@H]3OC[C@H](N)CO3)c2n1
0.68 °C

###

- TGT: Tyrosine-protein kinase ABL1 (Homo sapiens)
- RUN_CONDITIONS: Compound concentration 20.0 uM, Protein concentration 2.0 uM, Result type QC Liability
QUANTITY_MEASURED: ΔTm
The number alone won't do; follow it with the unit.

Answered examples (2):
# CPD_SMILES, READOUT_VALUE
measured = [
    ("Cc1cc(-c2cc3ncccc3c(OC[C@H]3CCCNC3)n2)ccc1N(C)C", "5.72 °C"),
    ("CN(C)CCCNc1ccnc(Nc2cccc(Cl)c2)n1", "2.74 °C"),
]

So what's the measured ΔTm for this one? CCn1c(-c2nonc2N)nc2ccccc21
0.33 °C
